Give GRinf for every item shown.
- System: Mycobacterium tuberculosis Erdman (autoluminescent)
- Test description: GRinf, maximum normalised growth rate inhibition (unitless (-1 to 1)); higher = less effect (negative = killing)
- Condition: in vitro model: acidic pH 5.7; time point: constant (~7 days, model-specific)
One number for each entry.

Field: GRinf. Fill in for each record below.
1. COc1nc2ccc(Br)cc2cc1[C@@H](c1ccccc1)[C@@](O)(CCN(C)C)c1cccc2ccccc12 [bedaquiline] + COc1c(N2C[C@@H]3CCCN[C@@H]3C2)c(F)cc2c(=O)c(C(=O)O)cn(C3CC3)c12 [moxifloxacin]
2. O=[N+]([O-])c1cn2c(n1)OC[C@@H](OCc1ccc(OC(F)(F)F)cc1)C2 [pretomanid] + CO[C@H]1/C=C/O[C@@]2(C)Oc3c(C)c(O)c4c(O)c(c(/C=N/N5CCN(C6CCCC6)CC5)c(O)c4c3C2=O)NC(=O)/C(C)=C\C=C\[C@H](C)[C@H](O)[C@@H](C)[C@@H](O)[C@@H](C)[C@H](OC(C)=O)[C@@H]1C [rifapentine]
3. COc1c(N2C[C@@H]3CCCN[C@@H]3C2)c(F)cc2c(=O)c(C(=O)O)cn(C3CC3)c12 [moxifloxacin] + NC(=O)c1cnccn1 [pyrazinamide]

-0.5
-0.447
-0.479

Using the record for CO[C@H]1/C=C/O[C@@]2(C)Oc3c(C)c(O)c4c(O)c(c(/C=N/N5CCN(C6CCCC6)CC5)c(O)c4c3C2=O)NC(=O)/C(C)=C\C=C\[C@H](C)[C@H](O)[C@@H](C)[C@@H](O)[C@@H](C)[C@H](OC(C)=O)[C@@H]1C [rifapentine] + CO[C@H]1/C=C/O[C@@]2(C)Oc3c(C)c(O)c4c(O)c(c(/C=N/N5CCN(C)CC5)c(O)c4c3C2=O)NC(=O)/C(C)=C\C=C\[C@H](C)[C@H](O)[C@@H](C)[C@@H](O)[C@@H](C)[C@H](OC(C)=O)[C@@H]1C [rifampicin] , report its GRinf.
-0.028

###

- Test system: Mycobacterium tuberculosis Erdman (autoluminescent)
- Test description: Einf, fitted maximum growth inhibition of three-drug combination (fraction); higher = stronger maximal inhibition
- Condition: in vitro model: intracellular J774; time point: constant = terminal
Give Einf for every item shown.
One number for each entry.

Use these answered entries as a reference point.
COc1nc2ccc(Br)cc2cc1[C@@H](c1ccccc1)[C@@](O)(CCN(C)C)c1cccc2ccccc12 [bedaquiline] + CC[C@@H](CO)NCCN[C@@H](CC)CO [ethambutol] + CO[C@H]1/C=C/O[C@@]2(C)Oc3c(C)c(O)c4c(O)c(c(/C=N/N5CCN(C)CC5)c(O)c4c3C2=O)NC(=O)/C(C)=C\C=C\[C@H](C)[C@H](O)[C@@H](C)[C@@H](O)[C@@H](C)[C@H](OC(C)=O)[C@@H]1C [rifampicin] : 0.946
COc1nc2ccc(Br)cc2cc1[C@@H](c1ccccc1)[C@@](O)(CCN(C)C)c1cccc2ccccc12 [bedaquiline] + CC[C@@H](CO)NCCN[C@@H](CC)CO [ethambutol] + CO[C@H]1/C=C/O[C@@]2(C)Oc3c(C)c(O)c4c(O)c(c(/C=N/N5CCN(C6CCCC6)CC5)c(O)c4c3C2=O)NC(=O)/C(C)=C\C=C\[C@H](C)[C@H](O)[C@@H](C)[C@@H](O)[C@@H](C)[C@H](OC(C)=O)[C@@H]1C [rifapentine] : 0.947

Here is the next item to consider.
Using the record for NNC(=O)c1ccncc1 [isoniazid] + CC(=O)NC[C@H]1CN(c2ccc(N3CCOCC3)c(F)c2)C(=O)O1 [linezolid] + COc1c(N2C[C@@H]3CCCN[C@@H]3C2)c(F)cc2c(=O)c(C(=O)O)cn(C3CC3)c12 [moxifloxacin] , report its Einf.
0.893

###

- Tested on: Mycobacterium tuberculosis Erdman (autoluminescent)
- Test description: AUC25, normalised area under dose response up to IC25 (three-drug combination) (fraction (0-1)); higher = more potent at low dose
- Condition: in vitro model: acidic pH 5.7; time point: terminal (~4-5 doublings, model-specific)
Readout label: AUC25

Use these answered entries as a reference point.
CC(C)/N=c1\cc2n(-c3ccc(Cl)cc3)c3ccccc3nc-2cc1Nc1ccc(Cl)cc1 [clofazimine] + CC(=O)NC[C@H]1CN(c2ccc(N3CCOCC3)c(F)c2)C(=O)O1 [linezolid] + NC(=O)c1cnccn1 [pyrazinamide] : 0.099
CC(C)/N=c1\cc2n(-c3ccc(Cl)cc3)c3ccccc3nc-2cc1Nc1ccc(Cl)cc1 [clofazimine] + O=[N+]([O-])c1cn2c(n1)OC[C@@H](OCc1ccc(OC(F)(F)F)cc1)C2 [pretomanid] + CO[C@H]1/C=C/O[C@@]2(C)Oc3c(C)c(O)c4c(O)c(c(/C=N/N5CCN(C6CCCC6)CC5)c(O)c4c3C2=O)NC(=O)/C(C)=C\C=C\[C@H](C)[C@H](O)[C@@H](C)[C@@H](O)[C@@H](C)[C@H](OC(C)=O)[C@@H]1C [rifapentine] : 0.0882

Here is the next item to consider.
Using the record for CC(C)/N=c1\cc2n(-c3ccc(Cl)cc3)c3ccccc3nc-2cc1Nc1ccc(Cl)cc1 [clofazimine] + NNC(=O)c1ccncc1 [isoniazid] + O=[N+]([O-])c1cn2c(n1)OC[C@@H](OCc1ccc(OC(F)(F)F)cc1)C2 [pretomanid] , report its AUC25.
0.0916

###

- System: Mycobacterium tuberculosis Erdman (autoluminescent)
- Test description: AUC25, normalised area under dose response up to IC25 (three-drug combination) (fraction (0-1)); higher = more potent at low dose
- Condition: in vitro model: acidic pH 5.7; time point: terminal (~4-5 doublings, model-specific)
Readout label: AUC25
Give bare numbers.

Use these answered entries as a reference point.
CC(C)/N=c1\cc2n(-c3ccc(Cl)cc3)c3ccccc3nc-2cc1Nc1ccc(Cl)cc1 [clofazimine] + COc1c(N2C[C@@H]3CCCN[C@@H]3C2)c(F)cc2c(=O)c(C(=O)O)cn(C3CC3)c12 [moxifloxacin] + O=[N+]([O-])c1cn2c(n1)OC[C@@H](OCc1ccc(OC(F)(F)F)cc1)C2 [pretomanid] : 0.0647
COc1nc2ccc(Br)cc2cc1[C@@H](c1ccccc1)[C@@](O)(CCN(C)C)c1cccc2ccccc12 [bedaquiline] + NNC(=O)c1ccncc1 [isoniazid] + CO[C@H]1/C=C/O[C@@]2(C)Oc3c(C)c(O)c4c(O)c(c(/C=N/N5CCN(C)CC5)c(O)c4c3C2=O)NC(=O)/C(C)=C\C=C\[C@H](C)[C@H](O)[C@@H](C)[C@@H](O)[C@@H](C)[C@H](OC(C)=O)[C@@H]1C [rifampicin] : 0.089
CC(C)/N=c1\cc2n(-c3ccc(Cl)cc3)c3ccccc3nc-2cc1Nc1ccc(Cl)cc1 [clofazimine] + CC[C@@H](CO)NCCN[C@@H](CC)CO [ethambutol] + NC(=O)c1cnccn1 [pyrazinamide] : 0.0918

Field: AUC25. Fill in for each record below.
1. CC[C@@H](CO)NCCN[C@@H](CC)CO [ethambutol] + COc1c(N2C[C@@H]3CCCN[C@@H]3C2)c(F)cc2c(=O)c(C(=O)O)cn(C3CC3)c12 [moxifloxacin] + O=[N+]([O-])c1cn2c(n1)OC[C@@H](OCc1ccc(OC(F)(F)F)cc1)C2 [pretomanid]
2. COc1nc2ccc(Br)cc2cc1[C@@H](c1ccccc1)[C@@](O)(CCN(C)C)c1cccc2ccccc12 [bedaquiline] + CC(C)/N=c1\cc2n(-c3ccc(Cl)cc3)c3ccccc3nc-2cc1Nc1ccc(Cl)cc1 [clofazimine] + COc1c(N2C[C@@H]3CCCN[C@@H]3C2)c(F)cc2c(=O)c(C(=O)O)cn(C3CC3)c12 [moxifloxacin]
3. COc1nc2ccc(Br)cc2cc1[C@@H](c1ccccc1)[C@@](O)(CCN(C)C)c1cccc2ccccc12 [bedaquiline] + NNC(=O)c1ccncc1 [isoniazid] + O=[N+]([O-])c1cn2c(n1)OC[C@@H](OCc1ccc(OC(F)(F)F)cc1)C2 [pretomanid]
4. CC[C@@H](CO)NCCN[C@@H](CC)CO [ethambutol] + COc1c(N2C[C@@H]3CCCN[C@@H]3C2)c(F)cc2c(=O)c(C(=O)O)cn(C3CC3)c12 [moxifloxacin] + NC(=O)c1cnccn1 [pyrazinamide]

1: 0.0788; 2: 0.0681; 3: 0.108; 4: 0.0713

Field: AUC25. Fill in for each record below.
1. CC(C)/N=c1\cc2n(-c3ccc(Cl)cc3)c3ccccc3nc-2cc1Nc1ccc(Cl)cc1 [clofazimine] + NC(=O)c1cnccn1 [pyrazinamide] + CO[C@H]1/C=C/O[C@@]2(C)Oc3c(C)c(O)c4c(O)c(c(/C=N/N5CCN(C)CC5)c(O)c4c3C2=O)NC(=O)/C(C)=C\C=C\[C@H](C)[C@H](O)[C@@H](C)[C@@H](O)[C@@H](C)[C@H](OC(C)=O)[C@@H]1C [rifampicin]
2. COc1nc2ccc(Br)cc2cc1[C@@H](c1ccccc1)[C@@](O)(CCN(C)C)c1cccc2ccccc12 [bedaquiline] + CC(C)/N=c1\cc2n(-c3ccc(Cl)cc3)c3ccccc3nc-2cc1Nc1ccc(Cl)cc1 [clofazimine] + O=[N+]([O-])c1cn2c(n1)OC[C@@H](OCc1ccc(OC(F)(F)F)cc1)C2 [pretomanid]
3. NNC(=O)c1ccncc1 [isoniazid] + COc1c(N2C[C@@H]3CCCN[C@@H]3C2)c(F)cc2c(=O)c(C(=O)O)cn(C3CC3)c12 [moxifloxacin] + NC(=O)c1cnccn1 [pyrazinamide]
4. CC(C)/N=c1\cc2n(-c3ccc(Cl)cc3)c3ccccc3nc-2cc1Nc1ccc(Cl)cc1 [clofazimine] + CC(=O)NC[C@H]1CN(c2ccc(N3CCOCC3)c(F)c2)C(=O)O1 [linezolid] + O=[N+]([O-])c1cn2c(n1)OC[C@@H](OCc1ccc(OC(F)(F)F)cc1)C2 [pretomanid]
5. NNC(=O)c1ccncc1 [isoniazid] + NC(=O)c1cnccn1 [pyrazinamide] + CO[C@H]1/C=C/O[C@@]2(C)Oc3c(C)c(O)c4c(O)c(c(/C=N/N5CCN(C)CC5)c(O)c4c3C2=O)NC(=O)/C(C)=C\C=C\[C@H](C)[C@H](O)[C@@H](C)[C@@H](O)[C@@H](C)[C@H](OC(C)=O)[C@@H]1C [rifampicin]
6. O=[N+]([O-])c1cn2c(n1)OC[C@@H](OCc1ccc(OC(F)(F)F)cc1)C2 [pretomanid] + NC(=O)c1cnccn1 [pyrazinamide] + CO[C@H]1/C=C/O[C@@]2(C)Oc3c(C)c(O)c4c(O)c(c(/C=N/N5CCN(C)CC5)c(O)c4c3C2=O)NC(=O)/C(C)=C\C=C\[C@H](C)[C@H](O)[C@@H](C)[C@@H](O)[C@@H](C)[C@H](OC(C)=O)[C@@H]1C

1. 0.0739
2. 0.0881
3. 0.0851
4. 0.0757
5. 0.0574
6. 0.0533
